solubility kinetic by entry:
Test: Kinetic solubility of compound at pH 6.5 phosphate buffer by nephelometry
Type: physicochemical
Conditions: read-out: Kinetic_solubility

[
  {
    "Molecule": "CCN1C(=O)N(c2ccc(F)c(C(F)(F)F)c2)C(=O)C1(C)C",
    "solubility kinetic": "25 µg/mL"
  },
  {
    "Molecule": "CC1(C)NC(=O)N(c2ccc(F)c(C#N)c2)C1=O",
    "solubility kinetic": "> 100 µg/mL"
  },
  {
    "Molecule": "CC1(C)C(=O)N(c2ccc(F)c(C(F)(F)F)c2)C(=O)N1S(=O)(=O)c1ccccc1",
    "solubility kinetic": "< 1.6 µg/mL"
  },
  {
    "Molecule": "CC1(C)NC(=O)N(c2ccncc2)C1=O",
    "solubility kinetic": "> 100 µg/mL"
  },
  {
    "Molecule": "CC1(C)C(=O)N(c2ccc(F)c(C(F)(F)F)c2)C(=O)N1CC(N)=O",
    "solubility kinetic": "50 µg/mL"
  },
  {
    "Molecule": "CC1(C)NC(=O)N(c2ccc(Cl)c(C(F)(F)F)c2)C1=O",
    "solubility kinetic": "> 100 µg/mL"
  },
  {
    "Molecule": "CC1(C)C(=O)NC(=O)N1c1ccc(F)c(C(F)(F)F)c1",
    "solubility kinetic": "25 µg/mL"
  },
  {
    "Molecule": "CC1(C)CC(=O)N(c2ccc(F)c(C(F)(F)F)c2)C1=O",
    "solubility kinetic": "12.5 µg/mL"
  },
  {
    "Molecule": "CC1(C)NC(=O)N(c2ccc(F)c(C(F)(F)F)c2)C1=O",
    "solubility kinetic": "> 100 µg/mL"
  },
  {
    "Molecule": "O=C(C1CCCCC1)N1CC(=O)N2CCc3ccccc3C2C1 (stereo unspecified)",
    "solubility kinetic": "> 100 µg/mL"
  },
  {
    "Molecule": "CC1(C)CN(c2ccc(F)c(C(F)(F)F)c2)C(=O)N1",
    "solubility kinetic": "12.5 µg/mL"
  }
]

====

IC50 by entry:
Biological target: Androgen receptor (Homo sapiens, UniProt P10275)
Sequence (P10275 whole entry): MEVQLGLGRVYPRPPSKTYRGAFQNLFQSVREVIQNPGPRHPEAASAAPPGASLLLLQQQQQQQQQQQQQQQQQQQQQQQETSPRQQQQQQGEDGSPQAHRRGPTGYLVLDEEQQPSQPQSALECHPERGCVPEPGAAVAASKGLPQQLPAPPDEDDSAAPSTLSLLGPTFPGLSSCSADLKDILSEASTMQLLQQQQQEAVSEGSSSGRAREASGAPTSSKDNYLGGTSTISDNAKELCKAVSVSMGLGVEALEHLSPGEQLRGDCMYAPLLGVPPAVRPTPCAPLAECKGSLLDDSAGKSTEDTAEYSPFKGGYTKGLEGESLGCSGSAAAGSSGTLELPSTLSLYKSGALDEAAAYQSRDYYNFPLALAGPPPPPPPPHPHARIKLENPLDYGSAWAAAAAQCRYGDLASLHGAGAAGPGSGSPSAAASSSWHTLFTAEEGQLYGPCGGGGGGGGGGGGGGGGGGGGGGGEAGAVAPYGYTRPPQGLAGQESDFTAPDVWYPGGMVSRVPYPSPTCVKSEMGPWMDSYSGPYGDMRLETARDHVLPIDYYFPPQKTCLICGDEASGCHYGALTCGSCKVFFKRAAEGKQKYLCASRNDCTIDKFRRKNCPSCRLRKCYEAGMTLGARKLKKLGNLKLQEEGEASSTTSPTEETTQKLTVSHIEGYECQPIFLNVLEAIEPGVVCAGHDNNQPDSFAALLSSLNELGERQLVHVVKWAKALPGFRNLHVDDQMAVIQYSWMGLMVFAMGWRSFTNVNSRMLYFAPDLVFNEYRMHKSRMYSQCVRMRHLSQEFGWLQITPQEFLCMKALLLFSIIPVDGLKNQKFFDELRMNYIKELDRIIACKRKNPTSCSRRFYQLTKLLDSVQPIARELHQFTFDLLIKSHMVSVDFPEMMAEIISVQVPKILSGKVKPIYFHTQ

[
  {
    "Smiles": "CC1(C)NC(=O)N(c2ccc(F)c(C(F)(F)F)c2)C1=O",
    "IC50": "4.4 µM"
  },
  {
    "Smiles": "CC1(C)C(=O)N(c2ccc(F)c(C(F)(F)F)c2)C(=O)N1S(C)(=O)=O",
    "IC50": "6.3 µM"
  },
  {
    "Smiles": "CC1(C)CNC(=O)N(c2ccc(F)c(C(F)(F)F)c2)C1=O",
    "IC50": "6.9 µM"
  },
  {
    "Smiles": "CC1(C)NC(=O)N(c2ccnc(C(F)(F)F)c2)C1=O",
    "IC50": "4.5 µM"
  },
  {
    "Smiles": "CN1C(=O)N(c2ccc(F)c(C(F)(F)F)c2)C(=O)C1(C)C",
    "IC50": "1.3 µM"
  },
  {
    "Smiles": "CC1(C)C(=O)N(c2ccc(F)c(C(F)(F)F)c2)C(=O)N1S(=O)(=O)c1ccccc1",
    "IC50": "4.3 µM"
  },
  {
    "Smiles": "Cc1ccc(N2C(=O)NC(C)(C)C2=O)cc1C(F)(F)F",
    "IC50": "> 10 µM"
  },
  {
    "Smiles": "CC1(C)NC(=O)N(c2cnccn2)C1=O",
    "IC50": "> 10 µM"
  },
  {
    "Smiles": "CC(C)(NC(=O)Nc1ccc(F)c(C(F)(F)F)c1)C(=O)O",
    "IC50": "3.1 µM"
  },
  {
    "Smiles": "CC1(C)NC(=O)N(c2ccc(F)c(C(F)F)c2)C1=O",
    "IC50": "≥ 10 µM"
  },
  {
    "Smiles": "CC1(C)OC(=O)N(c2ccc(F)c(C(F)(F)F)c2)C1=O",
    "IC50": "2.1 µM"
  }
]
